# testedOn: Bcl-2-like protein 2 (Homo sapiens, UniProt Q92843)
# Sequence (Q92843 whole entry): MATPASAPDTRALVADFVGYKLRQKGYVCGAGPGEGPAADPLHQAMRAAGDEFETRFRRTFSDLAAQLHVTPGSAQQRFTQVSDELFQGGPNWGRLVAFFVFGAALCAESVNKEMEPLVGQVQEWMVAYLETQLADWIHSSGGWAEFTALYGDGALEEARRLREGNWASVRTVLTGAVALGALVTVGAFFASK
pKi: −log10 of the molar value.
Recorded pKi for compounds tested on Bcl-2-like protein 2 (Homo sapiens, UniProt Q92843), drawn from a number of studies.
testReadout: pKi

Example entries begin here.
compound	testedOn	testReadout	measurement
CC(C)[C@@H]1CN(Cc2ccccc2C(F)(F)F)CCN1c1ccc(C(=O)NS(=O)(=O)c2ccc(N[C@H](CCN(C)C)CSc3ccccc3)c([N+](=O)[O-])c2)cc1	Bcl-2-like protein 2 (Homo sapiens, UniProt Q92843)	pKi	7.68
CCOC(=O)C1=C(N)Oc2ccc(C)cc2C1C(C#N)C(=O)OCC (stereo unspecified)	Bcl-2-like protein 2 (Homo sapiens, UniProt Q92843)	pKi	3.70
CC(C)[C@H]1CN(Cc2ccccc2C(F)(F)F)CCN1c1ccc(C(=O)NS(=O)(=O)c2ccc(N[C@H](CCN(C)C)CSc3ccccc3)c([N+](=O)[O-])c2)cc1	Bcl-2-like protein 2 (Homo sapiens, UniProt Q92843)	pKi	7.23
CN(C)CC[C@H](CSc1ccccc1)Nc1ccc(S(=O)(=O)NC(=O)c2ccc(N3CCN(Cc4ccccc4C(F)(F)F)CC3)cc2)cc1[N+](=O)[O-]	Bcl-2-like protein 2 (Homo sapiens, UniProt Q92843)	pKi	7.31

1: CC1CN(c2ccc(C(=O)NS(=O)(=O)c3ccc(N[C@H](CCN(C)C)CSc4ccccc4)c([N+](=O)[O-])c3)cc2)CC(C)N1Cc1ccccc1C(F)(F)F (stereo partly specified)
2: CC1(C)CCC(CN2CCN(c3ccc(C(=O)NS(=O)(=O)c4ccc(N[C@H](CCN5CCOCC5)CSc5ccccc5)c(S(=O)(=O)C(F)(F)Cl)c4)cc3)CC2)=C(c2ccc(Cl)cc2)C1
Input line: Of the two listed items, which has the higher pKi? First: 1 Second: 2 // respond with label for picked entry
Output line: 2
(2: 8.70, 1: 6.77)

====

Assay read-out Ki on Bcl-2-like protein 2 (Homo sapiens, UniProt Q92843); records merged from the literature.
testReadout: Ki (µM)

Consider the reported Ki for these compounds:
compound	unitDescriptor	Ki
C[C@H]1CN(c2ccc(C(=O)NS(=O)(=O)c3ccc(N[C@H](CCN(C)C)CSc4ccccc4)c([N+](=O)[O-])c3)cc2)CCN1Cc1ccccc1C(F)(F)F	µM	0.063
CCOC(=O)C1=C(N)Oc2ccc(C3CCCC3)cc2C1C(C#N)C(=O)OCC (configuration not stated)	µM	30.8
CN1CCN(C2=C(Cl)C(=O)N(c3ccc(Cl)c(Cl)c3)C2=O)CC1	µM	12.5
CN(C)CC#Cc1ccc(OCCCc2sc(N3CCc4cccc(C(=O)Nc5nc6ccccc6s5)c4C3)nc2C(=O)O)c(F)c1	µM	0.019
CCOC(=O)C1=C(N)Oc2ccccc2C1C(C#N)C(=O)OCC (configuration not stated)	µM	697

1: CC1(C)CCC(c2ccc(Cl)cc2)=C(CN2CCN(c3ccc(C(=O)NS(=O)(=O)c4ccc(N[C@H](CCN5CCOCC5)CSc5ccccc5)c(S(=O)(=O)C(F)(F)F)c4)cc3)CC2)C1
2: CCOC(=O)C1=C(N)Oc2ccc(-c3ccc(C(C)(C)C)cc3)cc2C1C(C#N)C(=O)OCC (configuration not stated)
Input line: Could you tell me which of these two has the smaller Ki figure? First: 1 Second: 2 Your answer should be the label attached to the chosen record.
Output line: 1
(1: 0.021 µM, 2: 20.3 µM)
